Target: MALT1 (Homo sapiens (Human))
Sequence (Q9UDY8 whole entry): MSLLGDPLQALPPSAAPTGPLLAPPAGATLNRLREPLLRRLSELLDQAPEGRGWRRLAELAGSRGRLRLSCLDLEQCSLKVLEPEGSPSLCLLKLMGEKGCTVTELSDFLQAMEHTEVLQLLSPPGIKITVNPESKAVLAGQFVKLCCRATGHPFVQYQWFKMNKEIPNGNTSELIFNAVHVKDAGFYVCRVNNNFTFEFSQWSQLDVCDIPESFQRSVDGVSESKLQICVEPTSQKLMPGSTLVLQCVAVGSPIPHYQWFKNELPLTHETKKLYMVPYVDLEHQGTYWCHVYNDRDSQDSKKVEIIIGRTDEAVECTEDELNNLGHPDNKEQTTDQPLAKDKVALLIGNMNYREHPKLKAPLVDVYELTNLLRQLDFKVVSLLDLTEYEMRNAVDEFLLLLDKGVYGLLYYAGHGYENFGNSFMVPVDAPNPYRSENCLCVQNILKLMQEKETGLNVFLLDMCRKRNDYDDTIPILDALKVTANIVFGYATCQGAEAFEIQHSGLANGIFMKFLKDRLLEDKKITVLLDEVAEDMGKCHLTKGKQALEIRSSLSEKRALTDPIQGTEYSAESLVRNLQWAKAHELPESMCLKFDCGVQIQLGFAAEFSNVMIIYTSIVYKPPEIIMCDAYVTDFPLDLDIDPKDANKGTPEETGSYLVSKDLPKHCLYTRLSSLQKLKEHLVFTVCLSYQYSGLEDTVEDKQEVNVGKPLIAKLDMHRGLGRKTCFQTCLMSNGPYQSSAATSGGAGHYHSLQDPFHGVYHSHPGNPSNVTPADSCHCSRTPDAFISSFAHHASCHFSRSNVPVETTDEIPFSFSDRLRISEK
Test: MALT1 enzymatic activity inhibition (fluorescence, Ac-LRSR-AMC substrate)
Type: biochemical
Details: recombinant MALT1 1.5 ng/μl, Ac-LRSR-AMC 1 μM
MEASUREMENT_TYPE: EC50

Sample records with EC50:
For the compound Cc1cc(NC(=O)Nc2cnc3ccnn3c2C(C)(C)C)cnc1-c1noc(CCCCC(=O)N2CCN(c3ccc4c(c3)CN(C3CCC(=O)NC3=O)C4=O)CC2)n1 (stereo not drawn) , the measured EC50 on MALT1 (Homo sapiens (Human)) was 1 to 5 µM

Item: O=C(CCOCCOCCN1CCN(c2ccc3c(c2)CN(C2CCC(=O)NC2=O)C3=O)CC1)NCCNC(=O)C1CCCN1C(=O)Nc1cnc2ccnn2c1C1CCCC1 (stereo not drawn) | System: MALT1 (Homo sapiens (Human)) | EC50: > 5 µM

Field: next compound
// returns EC50 for CC(C)c1c(NC(=O)Nc2ccc(-c3nnc(CCCCCCN4CCN(c5ccc6c(c5)CN(C5CCC(=O)NC5=O)C6=O)CC4)s3)nc2)cnc2ccnn12 (stereo not drawn) with MALT1 (Homo sapiens (Human)); value = 1 to 5 µM
